measurement.description: qHTS assay for cell viability of the p53RE-bla HCT-116 cell line (AID 743292); also: nearly all actives have a fitted effect of over 55% in size
measurement.context: p53RE-bla HCT-116 viability, ATP luminescence, 16 h; series mostly up to 95 µM
Records with an inconclusive call do not appear. The source made the active and inactive calls. Calls follow the shape of the dose curve; as a rule, active = well fitted cell-killing curve with a large enough effect; inconclusive = small, poorly fitted or top-dose-only effect, or effect the other way; inactive = flat fitted curve, though single readings scatter.
Outcome codes: 1 for active, 0 for inactive

1) COC(=O)/C=C(\C)OP(=O)(OC)OC: 0
2) C=CC(=O)OCCCCCC(C)C: 0
3) N#Cc1cc(Br)c(O)c(Br)c1: 0
4) C=CC1(C)OC(=O)N(c2cc(Cl)cc(Cl)c2)C1=O (stereo unspecified): 0
5) O=c1[nH]c2ccccc2c(=O)o1: 0
6) CC(C)(c1ccccc1)c1cc(-n2nc3ccccc3n2)c(O)c(C(C)(C)c2ccccc2)c1: 0
7) Cc1[nH]c(=O)n(C(C)(C)C)c(=O)c1Cl: 0
8) COP(=O)(OC)Oc1nc(Cl)c(Cl)cc1Cl: 0
9) CCSC(C)CC1CC(=O)C(/C(CC)=N/OC/C=C/Cl)=C(O)C1 (stereo unspecified): 0
10) CS(=O)(=O)c1cc(C(F)(F)F)ccc1C(=O)c1cnoc1C1CC1: 0
11) CN(C)c1ccc(N=O)cc1: 0
12) FC(F)(F)c1ccc(OCCCOc2c(Cl)cc(OCC=C(Cl)Cl)cc2Cl)nc1: 0
13) CCOCn1c(-c2ccc(Cl)cc2)c(C#N)c(Br)c1C(F)(F)F: 1
14) CCc1cc(C)cc(CC)c1-c1c(OC(=O)C(C)(C)C)n2n(c1=O)CCOCC2: 0
15) CC1=NNC(=O)N(/N=C/c2cccnc2)C1: 0
16) O=P(O)(O)CN(CP(=O)(O)O)CP(=O)(O)O: 0
17) CS(=O)(=O)NC(=O)c1cc(Oc2ccc(C(F)(F)F)cc2Cl)ccc1[N+](=O)[O-]: 0
18) O=C(O)c1nc(Cl)ccc1Cl: 0
19) N#CN=C1SCCN1Cc1ccc(Cl)nc1: 0
20) CC1(C)[C@H](C(=O)O[C@H](C#N)c2cccc(Oc3ccccc3)c2)[C@@H]1C=C(Br)Br: 0
21) COP(=O)(OC)Oc1ccc([N+](=O)[O-])cc1: 0
22) CC(C)CCCCCCOC(=O)c1ccccc1C(=O)OCCCCCCC(C)C: 0
23) C/C(=N\NC(=O)Nc1cc(F)cc(F)c1)c1ncccc1C(=O)O: 0
24) Clc1ccc(C2(Cn3cncn3)CC(Br)CO2)c(Cl)c1 (stereo unspecified): 0
25) Nc1cnn(-c2ccccc2)c(=O)c1Cl: 0
26) CCc1ccc(C(=O)NN(C(=O)c2cc(C)cc(C)c2)C(C)(C)C)cc1: 0
27) Cc1cc(Cl)ccc1O[C@H](C)C(=O)O: 0
28) CC(Oc1cc(Cl)c(Cl)cc1Cl)C(=O)O (stereo unspecified): 0
29) CCNc1nc(NC(C)C)nc(SC)n1: 0
30) O=C(O)c1c(Cl)ccc2cc(Cl)cnc12: 0
31) CSc1nnc(C(C)(C)C)c(=O)n1N: 0
32) [Ga]#[As]: 0
33) CCOP(=O)(OCC)SCCSCC: 0
34) CCN(CC)C(=O)SCc1ccc(Cl)cc1: 0
35) Cc1cc(C)nc(Nc2ccccc2)n1: 0
36) Clc1ccc([C@@]2(Cn3cncn3)C[C@@H](Br)CO2)c(Cl)c1: 0

====

measurement.description: qHTS assay for cell viability of the p53RE-bla HCT-116 cell line (AID 743292); also: nearly all actives have a fitted effect of over 55% in size
measurement.context: p53RE-bla HCT-116 viability, ATP luminescence, 16 h; series mostly up to 95 µM
Results filed as inconclusive are left out. Active and inactive are the calls of the source. Calls follow the shape of the dose curve; as a rule, active = well fitted cell-killing curve with a large enough effect; inconclusive = small, poorly fitted or top-dose-only effect, or effect the other way; inactive = flat fitted curve, though single readings scatter.
Outcome codes: YES for active, NO for inactive

1) CC1(C(=O)Nc2ccc(O)c(Cl)c2Cl)CCCCC1: NO
2) CC(C)N(C(=O)COc1nnc(C(F)(F)F)s1)c1ccc(F)cc1: NO
3) CC(C)OC(=O)C(O)(c1ccc(Br)cc1)c1ccc(Br)cc1: YES

====

measured.on: Retinoic acid receptor RXR-alpha (Homo sapiens) (UniProt P19793)
Sequence (P19793 whole entry, looked up): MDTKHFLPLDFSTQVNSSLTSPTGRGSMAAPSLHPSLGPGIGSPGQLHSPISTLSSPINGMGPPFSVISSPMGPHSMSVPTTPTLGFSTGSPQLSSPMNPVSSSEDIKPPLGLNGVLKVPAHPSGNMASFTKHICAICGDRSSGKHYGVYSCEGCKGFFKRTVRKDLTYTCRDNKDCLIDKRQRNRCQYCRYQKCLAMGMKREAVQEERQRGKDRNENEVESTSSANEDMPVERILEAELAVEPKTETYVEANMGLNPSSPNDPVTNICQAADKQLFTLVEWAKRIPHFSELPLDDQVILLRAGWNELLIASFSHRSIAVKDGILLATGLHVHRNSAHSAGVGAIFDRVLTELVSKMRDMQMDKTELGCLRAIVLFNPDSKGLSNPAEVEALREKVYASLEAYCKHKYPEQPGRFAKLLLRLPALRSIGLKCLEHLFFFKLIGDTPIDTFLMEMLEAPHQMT
measurement.description: qHTS assay for small molecule agonists of retinoid X receptor alpha signaling (AID 588544)
measurement.context: HEK293T RXRa-UAS-bla, beta-lactamase reporter, 18 h; series mostly up to 76.7 µM
Inconclusive results are not listed. Active and inactive are the calls of the source. Calls follow the shape of the full dose curve.
Outcome codes: active, inactive

1. C=CC(=O)OCCCCCC(C)C: active
2. [CH3][Sn]([Cl])([Cl])[Cl]: inactive
3. CCOP(=S)(Oc1cnc(C(C)(C)C)nc1)OC(C)C (configuration not stated): inactive
4. C#CCO: inactive
5. COP(=S)(OC)Oc1ccc([N+](=O)[O-])c(C)c1: inactive
6. Cc1cc(Cl)ccc1N=CN(C)C: inactive
7. CO/N=C(/C(=O)OC)c1ccccc1COc1ccccc1C: inactive
8. O=C(NC(=O)c1c(F)cccc1F)Nc1cc(Cl)c(OC(F)(F)C(F)C(F)(F)F)c(Cl)c1F (configuration not stated): inactive
9. ClC1=C(Cl)C2(Cl)C3C4OC4C(Cl)C3C1(Cl)C2(Cl)Cl (configuration not stated): inactive
10. CCOC(=O)C(Cl)Cc1cc(-n2nc(C)n(C(F)F)c2=O)c(F)cc1Cl (configuration not stated): inactive
11. CC1(C)CON(Cc2ccccc2Cl)C1=O: inactive
12. CCOP(=O)(O)C(N)=O: inactive
13. CC(C)(C)OOC(C)(C)c1ccc(C(C)(C)OOC(C)(C)C)cc1: inactive
14. Cc1cccc2sc3nncn3c12: inactive
15. O=C1C=CC(=O)c2ccccc21: inactive
16. COC(C)(C)CCC[C@H](C)C/C=C/C(C)=C/C(=O)OC(C)C: inactive
17. CC(C1CC1)C(O)(Cn1cncn1)c1ccc(Cl)cc1 (configuration not stated): inactive
18. Cn1c(-c2ccccc2)cc(-c2ccccc2)[n+]1C: inactive
19. ClCc1ccccc1Cl: inactive
20. CCCCOC(=O)c1ccccc1C(=O)O: inactive
21. CC1(C)Cc2cccc(O)c2O1: inactive
22. C/C(=N\NC(=O)Nc1cc(F)cc(F)c1)c1ncccc1C(=O)O: inactive
23. C1=Cc2cccc3cccc1c23: inactive
24. Cc1[nH]c(=O)n(C(C)(C)C)c(=O)c1Cl: inactive
25. CC1(C)CCC(Cc2ccc(Cl)cc2)C1(O)Cn1cncn1 (configuration not stated): inactive
26. CC(C)(C)C(=O)[C@@H](Oc1ccc(Cl)cc1)n1cncn1: inactive
27. CC1(C)C(C=C(Cl)Cl)[C@H]1C(=O)OCc1cccc(Oc2ccccc2)c1 (some centres not stated): inactive
28. CC/C(=N\OC/C=C/Cl)C1=C(O)CC(C2CCOCC2)CC1=O (configuration not stated): inactive
29. CCN(CC)C(=O)C(C)Oc1cccc2ccccc12 (configuration not stated): inactive
30. COc1cc(Cl)c(OC)cc1Cl: inactive
31. CC(C)C1(C)N=C(c2nc3ccccc3cc2C(=O)O)NC1=O (configuration not stated): inactive
32. CCOP(=O)(OCC)Oc1ccc([N+](=O)[O-])cc1: inactive
33. Cc1ccccc1C(=O)Nc1cccc(OC(C)C)c1: inactive
34. CCOP(=O)(SC(C)CC)SC(C)CC (configuration not stated): inactive
35. Nc1nc(N)nc(Cl)n1: inactive
36. O=S(=O)(c1ccc(O)cc1)c1ccc(O)cc1: inactive
37. CC(C)[C@H](C(=O)O[C@H](C#N)c1cccc(Oc2ccccc2)c1)c1ccc(Cl)cc1: inactive
38. COc1ccc(/C(=C/C(=O)N2CCOCC2)c2ccc(Cl)cc2)cc1OC: inactive
39. CCCOCC(=Nc1ccc(Cl)cc1C(F)(F)F)n1ccnc1: inactive
40. CCOP(=S)(S)OCC: inactive
41. CC(Oc1cccc(Cl)c1)C(=O)O (configuration not stated): inactive
42. CCNc1nc(Cl)nc(NC(C)(C)C#N)n1: inactive
43. COC(=O)N(OC)c1ccccc1COc1ccn(-c2ccc(Cl)cc2)n1: inactive
44. CNP(=O)(OC)Oc1ccc(C(C)(C)C)cc1Cl (configuration not stated): inactive
45. CCNc1nc(NCC)nc(SC)n1: inactive
46. Cc1cc(C2CC2)nc(Nc2ccccc2)n1: inactive
47. Cc1nn(-c2cc(NS(C)(=O)=O)c(Cl)cc2Cl)c(=O)n1C(F)F: inactive

====

measurement.description: qHTS assay for small molecule agonists of the antioxidant response element (ARE) signaling pathway measured by Nrf2-dependant transcriptional activity (AID 720636);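 as to activation: HepG2 cells with an ARE-driven luciferase reporter; % of control where 0% means no effect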
measurement.context: ARE-luc HepG2, Nrf2 luciferase reporter, 16 h; series mostly up to 92.4 µM
Results filed as inconclusive are left out. Calls of active or inactive are those of the source. The call rests on the fitted dose curve; in most records, active means well fitted activation curve with a large enough effect in the repeat runs; inconclusive means weak or mixed curves; inactive means flat fitted curve, though single readings scatter.
Outcome codes: true (1) for active, false (0) for inactive

1. CCCOCC(=Nc1ccc(Cl)cc1C(F)(F)F)n1ccnc1: true (1)
2. OC(c1ccc(Cl)cc1)(c1cncnc1)c1ccccc1Cl (centres undefined): false (0)
3. O=C(O)[C@@H]1[C@H](C(=O)O)[C@@]2(Cl)C(Cl)=C(Cl)[C@]1(Cl)C2(Cl)Cl: false (0)
4. O=Nc1ccc(Nc2ccccc2)cc1: true (1)
5. COc1cnc(OC)n2nc(NS(=O)(=O)c3c(OCC(F)F)cccc3C(F)(F)F)nc12: false (0)
6. Oc1ccc(C2(c3ccc(O)cc3)c3ccccc3-c3ccccc32)cc1: false (0)
7. CC1=NNC(=O)N(/N=C/c2cccnc2)C1: false (0)
8. CC(C)C1(C)N=C(c2ncccc2C(=O)O)NC1=O (centres undefined): false (0)
9. C=CC(=O)OCCCCCC(C)C: false (0)
10. CCNc1nc(NC(C)(C)C)nc(SC)n1: false (0)
11. N#CC(Br)(Br)C(N)=O: false (0)
12. CC1COC(Cn2cncn2)(c2ccc(Oc3ccc(Cl)cc3)cc2Cl)O1 (centres undefined): false (0)
13. Clc1ccc([C@@]2(Cn3cncn3)C[C@@H](Br)CO2)c(Cl)c1: false (0)
14. C#CCO: false (0)
15. CCC/C(=N\OCC)C1=C(O)CC(CC(C)SCC)CC1=O (centres undefined): false (0)
16. CC(C)=C[C@@H]1[C@@H](C(=O)OCN2C(=O)C3=C(CCCC3)C2=O)C1(C)C: false (0)
17. CC(C)(C)c1ccc(CSc2cnn(C(C)(C)C)c(=O)c2Cl)cc1: false (0)
18. CCOP(OCC)OCC: false (0)
19. COCC(=O)N(c1c(C)cccc1C)N1CCOC1=O: false (0)

Where these numbers come from: PubChem BioAssay (NCATS)
